Tested on: SEM cells
experimentalProtocol: cell viability relative to DMSO control; higher = less cytotoxic
assayContext: RPMI 5 mM glucose + 10% dialyzed FBS; 48 h; 0.569 µM
measurementName: cell viability (%)

INSERT INTO assay_data (compound, resultnumber) VALUES
  ('Cc1ccc(/C=N/NC(=O)c2ccccc2Oc2ccccc2)o1', 97.5),
  ('C[N]1N=CC=C1C/2=C(\C)N(C(=O)C(=C2)/C(=O)NCC3=NC=C(C=C3)[S+](C)([O-])=O)C4=CC=CC(=C4)C(F)(F)F', 108),
  ('N#Cc1ccc(NC(=O)Nc2ccccc2Br)c2nn[nH]c12', 125),
  ('OC[C@H]1OC(OC2=CC3=C(C(=C2)O)C(=O)\C(=C/O3)C4=CC=C(O)C=C4)[C@H](O)[C@@H](O)[C@@H]1O (some centres undefined)', 89.8);
